Below is a list of entries, each paired with its recorded pIC50 value.
target: Sodium-dependent serotonin transporter (Homo sapiens); assay: Inhibition of re-uptake of [3H]-5-HT at human SERT expressed in HEK293 cells preincubated for 5 mins followed by [3H]-dopamine addition measured after 1 min by liquid scintillation counting; type: cell-based; conditions: read-out: IC50
Sequence (P31645 whole entry): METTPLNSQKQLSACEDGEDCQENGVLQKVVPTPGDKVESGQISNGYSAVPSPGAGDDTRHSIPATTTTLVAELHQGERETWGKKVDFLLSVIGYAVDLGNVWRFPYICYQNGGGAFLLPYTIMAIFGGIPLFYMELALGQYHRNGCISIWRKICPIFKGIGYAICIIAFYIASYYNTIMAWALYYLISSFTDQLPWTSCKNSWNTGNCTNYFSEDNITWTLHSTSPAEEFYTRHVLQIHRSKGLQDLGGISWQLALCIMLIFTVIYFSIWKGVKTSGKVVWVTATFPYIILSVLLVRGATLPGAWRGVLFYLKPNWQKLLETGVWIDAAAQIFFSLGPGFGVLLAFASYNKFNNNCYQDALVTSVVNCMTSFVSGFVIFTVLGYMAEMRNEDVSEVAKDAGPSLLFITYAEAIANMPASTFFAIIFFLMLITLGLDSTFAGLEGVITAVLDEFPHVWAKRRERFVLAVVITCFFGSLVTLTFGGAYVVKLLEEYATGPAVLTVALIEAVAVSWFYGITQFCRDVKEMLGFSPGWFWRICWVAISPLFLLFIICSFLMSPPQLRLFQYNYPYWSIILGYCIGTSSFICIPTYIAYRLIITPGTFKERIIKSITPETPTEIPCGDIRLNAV
# pIC50 is unitless: minus log10 of the molar concentration; print number only

input: Identify the reported pIC50 for the following entry. [O-][S+](Cc1csc(Br)c1)C(c1ccccc1)c1ccccc1 (configuration not stated)
output: 4.35

input: Identify the reported pIC50 for the following entry. [O-][S+](Cc1nc(C(F)(F)F)no1)C(c1ccccc1)c1ccccc1 (configuration not stated)
output: 3.68

Continuing:
input: Identify the reported pIC50 for the following entry. Cc1ccc(C(c2ccccc2)[S+]([O-])Cc2cccs2)cc1 (configuration not stated)
output: 3.93

input: Identify the reported pIC50 for the following entry. [O-][S+](Cc1ccsc1Br)C(c1ccccc1)c1ccccc1 (configuration not stated)
output: 4.22

input: Identify the reported pIC50 for the following entry. [O-][S+](Cc1cc(Br)cs1)C(c1ccccc1)c1ccccc1 (configuration not stated)
output: 4.15

input: Identify the reported pIC50 for the following entry. [O-][S+](Cc1ccc(Cl)s1)C(c1ccccc1)c1ccccc1 (configuration not stated)
output: 4.24

input: Identify the reported pIC50 for the following entry. [O-][S+](Cc1cccs1)C(c1ccc(F)cc1)c1ccc(F)cc1 (configuration not stated)
output: 3.92
